Below, each entry is listed with its recorded TGI.
# Test system: OVCAR-5 ovarian
# assay.procedure: NCI tumour cell line growth inhibition, 48 h

Reference set (3 entries):
> print(dat)
                                   molecule  value.observed
1  Cc1ccc(-c2csc(NC(=O)N3CCN(c4cc5c(cc4F)c(=O)c(C(=O)O)cn5C4CC4)CC3)n2)cc1        > 100 µM
2  O=C(c1ccccc1)N1C(=S)N(c2ccccn2)C(=Nc2ccccc2)C1=Nc1ccccc1       > 44.3 µM
3  COC1=C(C)C(=O)c2c(cc3c(c2O)C(C)(CCC=C(C)C)C(C)O3)C1=O (centres undefined)        > 100 µM

Pending molecule:
Considering "Cn1cc(-c2csc(-c3cn(C)c4ccccc34)n2)c2ccccc21" , its TGI with OVCAR-5 ovarian was recorded as > 100 µM

====

# System: HCC-2998 colon
# assay.procedure: NCI tumour cell line growth inhibition, 48 h
property.label: TGI (µM)
Report the figure in µM without appending any unit label.

> print(dat)
                                   compound  property.label  value.observed
1  COc1cc(/C=C/C(=O)c2ccc(F)cc2)ccc1OCCCN1CCN(CC(=O)Nc2ccc(Cl)cc2C(=O)c2ccccc2Cl)CC1             TGI            40.1

Pending compound:
Entry under test: CCOc1ccc(NC(=O)C(=O)C(C(=O)c2ccc3ccccc3c2)C2OC(=O)c3ccccc32)cc1 (stereo not drawn) . Its TGI was 23.2

====

# System: OVCAR-4 ovarian
# assay.procedure: NCI tumour cell line growth inhibition, 48 h
Below, each entry is listed with its recorded TGI.

Reference set (3 entries):
compound	value.observed
Cc1ccc(N/C(SCc2ccccc2)=C(\C(Cl)=C(Cl)Cl)[N+](=O)[O-])c(C)c1	54 µM
COc1ccc(CC(=O)c2ccc(O)cc2O)cc1	> 100 µM
O=c1oc2c(Cl)cc(Cl)cc2cc1C1=CSC2=NCCN12	> 100 µM

Entry under test: CC(=O)OC(C)(C)CCC(=O)[C@](C)(O)[C@H]1[C@H](O)C[C@@]2(C)[C@@H]3CCc4c(cc(OC5OC(CO)C(O)C(O)C5O)c(O)c4C)C3(C)C(=O)C[C@]12C (stereo partly specified) . Its TGI was > 100 µM

Entry under test: "COc1ccc(/C=C2\C[C@H]3[C@@H]4CCC5=CC(=O)CC[C@]5(C)[C@H]4CC[C@]3(C)C2=O)cc1OC" . Its TGI was > 100 µM

====

# System: SNB-78 CNS
# assay.procedure: NCI tumour cell line growth inhibition, 48 h
Below, each entry is listed with its recorded TGI.

> print(dat)
                                   molecule  property.label  value.observed
1     CCOC(=O)/C(O)=C(/C(=O)OC)c1ccc(Cl)cc1             TGI        > 100 µM
2  CCc1cccc(C)c1NC(=O)C1=C(C)NC(C)=C(C(=O)Nc2c(C)cccc2CC)C1c1ccc2c(c1)OCO2             TGI        > 100 µM

Pending molecule:
Entry under test: COC1=C(C)C(=O)c2c(cc3c(c2O)C(C)(CCC=C(C)C)C(C)O3)C1=O (stereo not drawn) . Its TGI was > 100 µM

====

Below, each entry is listed with its recorded TGI.
# Tested on: BT-549 breast
# assay.procedure: NCI tumour cell line growth inhibition, 48 h
Report the figure in µM without appending any unit label.

> print(dat)
                                   compound  units.label  value.observed
1  c1ccc2c(c1)OC(N1CCCC1)c1cnc(N3CCOCC3)nc1-2 (stereo unspecified)           µM            72.8

Entry under test: "Cc1cnc(CNC(=O)c2c(=O)c3ccc(N4CCCN(C)CC4)nc3n3c2sc2ccccc23)cn1" . Its TGI was 28.4

Entry under test: "O=S(=O)(c1cccc2c(I)cccc12)N1CCCNCC1" . Its TGI was 43.3

====

# Test system: SK-OV-3 ovarian
# assay.procedure: NCI tumour cell line growth inhibition, 48 h
Below, each entry is listed with its recorded TGI.
Report the figure in µM without appending any unit label.

Reference set (3 entries):
> print(dat)
                           structure.smiles   assayed.system  property.label  units.label  value.observed
1  COc1ccccc1CNCCCN1C(=O)c2ccc3c4c(ccc(c24)C1=O)C(=O)N(CCCN)C3=O  SK-OV-3 ovarian             TGI           µM            7.18
2  C#CCNCCN1C(=O)c2ccc3c4c(ccc(c24)C1=O)C(=O)N(CCNCC#C)C3=O  SK-OV-3 ovarian             TGI           µM            22.6
3  O=[N+]([O-])c1ccc(N2CCC(CCCC3CCN(c4ccc([N+](=O)[O-])cc4[N+](=O)[O-])CC3)CC2)c([N+](=O)[O-])c1  SK-OV-3 ovarian             TGI           µM            37.5

Entry under test: "Oc1c(Cl)c(Cl)c(O)c2c1CCCC2" . Its TGI was 27.2

====

# System: RPMI-8226 leukemia
# assay.procedure: NCI tumour cell line growth inhibition, 48 h
Below, each entry is listed with its recorded TGI.

> print(dat)
                                   compound  value.observed
1      CC(=O)N(C(C)=O)c1cc2c3c(c1)CCCN3CCC2         > 10 µM
2  COC(=O)Nc1nc2ccc(Oc3cccc(NC(=O)Nc4cc(C(F)(F)F)ccc4F)c3)cc2[nH]1         > 25 µM
3  Nc1c(C(=O)c2cccc(-c3cccnc3)c2)cnn1-c1ccc(F)cc1F         > 25 µM
4  CC1=C(C(=O)N[C@@H](CC(C)C)C(=O)O)N2C(=O)[C@@H](NC(=O)C(N)c3ccccc3)[C@H]2SC1 (stereo partly drawn)        > 100 µM
5  CC[C@@]1(O)C(=O)OCc2c1cc1n(c2=O)Cc2c-1nc1ccccc1c2/C=N/NC(=O)c1ccc(N)cc1        > 100 µM

Considering "Cc1[nH]c(=O)nc(Nc2ccc(Cl)cc2)c1C(=O)N1CCN(CCO)CC1" , its TGI with RPMI-8226 leukemia was recorded as > 100 µM

Considering "Cc1[nH]c2ccc(F)cc2c1-c1nc2c3cccnc3c3ncccc3c2[nH]1" , its TGI with RPMI-8226 leukemia was recorded as > 100 µM

Considering "COc1ccc(/C=C2\C[C@H]3[C@@H]4CCC5=CC(=O)CC[C@]5(C)[C@H]4CC[C@]3(C)C2=O)cc1OC" , its TGI with RPMI-8226 leukemia was recorded as 47.3 µM

Considering CCN1CN(c2ccccc2)C2(CCN(CC(CC3OCCO3)c3ccc(F)cc3)CC2)C1=O (stereo not drawn) , its TGI with RPMI-8226 leukemia was recorded as 60.2 µM

Considering "CCOc1ccc(N/C(=C(/C(Cl)=C(/Cl)NC(C)(C)C)[N+](=O)[O-])n2nnc3ccccc32)cc1" , its TGI with RPMI-8226 leukemia was recorded as > 100 µM

Considering "COc1ccccc1CNCCCN1C(=O)c2ccc3c4c(ccc(c24)C1=O)C(=O)N(CCCN)C3=O" , its TGI with RPMI-8226 leukemia was recorded as 4.52 µM

Considering "Nc1c(C(=O)c2cccc(C#CCO)c2)cnn1-c1ccc(F)cc1" , its TGI with RPMI-8226 leukemia was recorded as > 25 µM

Considering "C[CH2][Sn]([CH2]C)([O]C(=O)c1ccccc1F)[O][Sn]([CH2]C)([CH2]C)[O]C(=O)c1ccccc1F" , its TGI with RPMI-8226 leukemia was recorded as > 100 µM

Considering "C#CCNCCN1C(=O)c2ccc3c4c(ccc(c24)C1=O)C(=O)N(CCNCC#C)C3=O" , its TGI with RPMI-8226 leukemia was recorded as 43.2 µM

Considering "CCc1cccc(C)c1NC(=O)C1=C(C)NC(C)=C(C(=O)Nc2c(C)cccc2CC)C1c1ccc2c(c1)OCO2" , its TGI with RPMI-8226 leukemia was recorded as 47.2 µM

Considering "OCCn1cnc2c(SCc3ccccc3)ncnc21" , its TGI with RPMI-8226 leukemia was recorded as > 100 µM

Considering "CCCN(CCC)C(=O)C(=O)c1c(N)[nH]n(-c2ccccc2)c1=O" , its TGI with RPMI-8226 leukemia was recorded as > 100 µM

Considering "Cc1ccc(-c2nc3nc(-c4ccccc4)nc(N4CCNCC4)c3o2)cc1" , its TGI with RPMI-8226 leukemia was recorded as 0.571 µM

====

Below, each entry is listed with its recorded TGI.
# Tested on: HS 578T breast
# assay.procedure: NCI tumour cell line growth inhibition, 48 h

> print(dat)
                                   compound  value.observed
1          c1ccc(CSC2(SCc3ccccc3)CCCCC2)cc1         > 10 µM
2  CCOC(=O)c1cc2c(n1Cc1cc(OC)c(OC)c(OC)c1)-c1oncc1CCC2        > 100 µM
3       CCOC(=O)NN(C(=O)OCC)c1c(C)cc(C)cc1C        > 100 µM
4  O=C(c1ccc(Cl)cc1)N(C(=S)OCCOc1ccccc1)c1ccccc1        > 100 µM

Entry under test: COc1ccccc1C1c2cc3c(cc2OC(N2CCOCC2)C1C)OCO3 (stereo not given) . Its TGI was 39 µM

Entry under test: COc1ccc(C2=C(c3ccc(OC)c(OC)c3)C(=O)N3CCCC3C2)cc1 (stereo not given) . Its TGI was > 78 µM

Entry under test: COc1cccc(C2c3cc4c(cc3OC(Nc3ccccc3)C2C)OCO4)c1OC (stereo not given) . Its TGI was 61.4 µM

Entry under test: "CN(C)c1ccc(C(=NO)c2ccc(N(C)C)cc2)cc1" . Its TGI was > 100 µM

Entry under test: "CC1=C(C(=O)N(C)c2ccc(Cl)c(C(=O)OC(C)C)c2)SCCO1" . Its TGI was > 100 µM

Entry under test: "COc1ccccc1CNCCCN1C(=O)c2ccc3c4c(ccc(c24)C1=O)C(=O)N(CCCN)C3=O" . Its TGI was 6.95 µM

Entry under test: "Cc1n(Cc2ccccc2)nc2sc(N)n[n+]12" . Its TGI was > 100 µM

Entry under test: "OCCn1cnc2c(SCc3ccccc3)ncnc21" . Its TGI was > 100 µM
